Target: T1, PUF4 RNA-binding domain (Saccharomyces cerevisiae, UniProt P25339 537-888)
T1 sequence: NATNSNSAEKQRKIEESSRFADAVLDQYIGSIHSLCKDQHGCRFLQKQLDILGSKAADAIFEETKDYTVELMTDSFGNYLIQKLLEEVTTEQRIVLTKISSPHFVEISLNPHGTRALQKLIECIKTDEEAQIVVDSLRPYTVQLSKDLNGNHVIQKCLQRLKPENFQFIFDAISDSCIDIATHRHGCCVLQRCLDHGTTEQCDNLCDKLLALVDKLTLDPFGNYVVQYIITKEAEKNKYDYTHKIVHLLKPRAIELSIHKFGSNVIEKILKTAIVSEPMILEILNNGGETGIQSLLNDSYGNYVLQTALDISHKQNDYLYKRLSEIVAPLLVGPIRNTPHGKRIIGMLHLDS
Experiment: Mg; RNA-MaP; 20 mM Na-HEPES pH 7.4, 30 mM KOAc, 0.75 mM MgCl2, 0.1% Tween-20, 5% glycerol, 0.1 mg/mL BSA, 2 mM DTT; 25 C; 0.0125-409.6 nM protein
Details: tags: N-His6-TEV cleaved; C-SNAP kept, Cy3B-labelled; label: tethered on chip by stalled RNA polymerase

binder: Ic_S4_P4E.1_K4.1_C4.1_H4.1_A4.1_[T5G]_[A6C]_[T7A]_F4.1_[T8A]_[A9C]_T4.1 (ssRNA) RNA: UUUGACAACUGAUCGUUCUUUCUUGUAGCAACUUCUUUCUCGAUCAGUUGUCUUU
Kd: 1.35 µM

binder: UCUCUUUGUACACCGUCUCUU (ssRNA) [Ic_S1_P4E.1_K4.1_C4.1_H4.1_A4.1_[T5C]_[T7C]_F4.1_[T8C]_[A9G]_T4.1]
Kd: 0.407 µM

binder: UCUCUUUAUAUUAUUAUCUCUU (ssRNA) [Ia_S1_P5E.1_K5.1_C5.1_H5.1_[G2A]_A5.1_F5.1_T5.1]
Kd: 0.367 µM

binder: UCUCUUUGUAUGAUGUCUCUU (ssRNA) [Ic_S1_P4E.1_K4.1_C4.1_H4.1_A4.1_[A6G]_[T7A]_F4.1_[A9G]_T4.1]
Kd: 0.0567 µM

binder: UCUCUUUGUAUUAUCCUCUAUCUCUU (ssRNA) [Ie_S1_P5E.1_K5.1_C5.1_H5.1_A5.1_F5.1_[+8CCTC]_T5.1]
Kd: 0.0319 µM

binder: UCUCUUGCUAUAUAUAUAUCUCUU (ssRNA) [Id_i_S1_P3E.3_K3.2_C3.2_[C-2G]_[T-1C]_H3.2_A3.1_F3.1_T3.2]
Kd: 0.569 µM

binder: Ib_S4_P4E.1_K4.1_C4.1_H4.1_[A4C]_A4.1_F4.1_[A9C]_T4.1 (ssRNA) RNA: UUUGACAACUGAUCGUUCUUUCUUGUCUAUUCUUCUUUCUCGAUCAGUUGUCUUU
Kd: 0.501 µM

binder: UCUCUUUGUGUAUGUCUCUU (ssRNA) [Ib_S1_P3E.1_K3.1_C3.1_H3.1_[A4G]_A3.1_F3.1_[A8G]_T3.1]
Kd: 0.494 µM

binder: Ic_S2_P4E.1_K4.1_C4.1_H4.1_A4.1_[T5C]_[A6T]_[T7A]_F4.1_[A9C]_T4.1 (ssRNA) RNA: UUUGAUUAAUAUGAUAUCGUUCUUUCUUGUACUAUCUUCUUUCUCGAUAUCAUAUUAAUCUUU
Kd: 0.00916 µM

binder: Ib_S4_P5E.1_K5.1_C5.1_H5.1_A5.1_[T6C]_[A7C]_F5.1_T5.1 (ssRNA) RNA: UUUGACAACUGAUCGUUCUUUCUUGUAUCCUUAUUCUUUCUCGAUCAGUUGUCUUU
Kd: 0.00455 µM

binder: Ib_S2_P4E.1_K4.1_C4.1_H4.1_[A4G]_A4.1_[T7A]_F4.1_T4.1 (ssRNA) RNA: UUUGAUUAAUAUGAUAUCGUUCUUUCUUGUGUAAUAUUCUUUCUCGAUAUCAUAUUAAUCUUU
Kd: 0.00579 µM

binder: UCUCUUUGUAUUUCAUCUCUU (ssRNA) [Ib_S1_P4E.1_K4.1_C4.1_H4.1_A4.1_[A6T]_F4.1_[T8C]_T4.1]
Kd: 0.0696 µM

binder: Ic_S4_P4E.1_K4.1_C4.1_H4.1_A4.1_[A6G]_[T7G]_F4.1_[A9T]_T4.1 (ssRNA) RNA: UUUGACAACUGAUCGUUCUUUCUUGUAUGGUUUUCUUUCUCGAUCAGUUGUCUUU
Kd: 0.292 µM
